Value source: ChEMBL document CHEMBL1133118

# EXPERIMENTAL_TARGET: Adenosine receptors; A2b & A3 (Homo sapiens) (UniProt P29275+P0DMS8)
# ASSAY_OVERVIEW: Ratio of binding affinity of human A2B receptor to that of human A3 receptor
# Assay type: protein assay
MEASURED_PARAMETER: Ratio
Lab note: jot down the number only; don't add units.

Task: Output measured Ratio for this item: CCCn1cc2c(nc(NC(=O)Nc3cccc(Cl)c3)n3nc(-c4ccco4)nc23)n1
Output: 62.6

Task: Give reported Ratio value for CC(C)(C)n1cc2c(nc(NC(=O)Nc3cccc(Cl)c3)n3nc(-c4ccco4)nc23)n1
Output: 162

Task: Fill in reported Ratio for this entry: Nc1nc2nn(CCc3cc(Br)c(Br)cc3Br)cc2c2nc(-c3ccco3)nn12
Output: 0.25

Task: Return the recorded Ratio value; entry: C=CCn1cc2c(nc(NC(=O)Nc3ccc(OC)cc3)n3nc(-c4ccco4)nc23)n1
Output: 4230

Task: For the compound O=C(Nc1cccc(Cl)c1)Nc1nc2nn(CCc3ccccc3)cc2c2nc(-c3ccco3)nn12 , report Ratio.
Output: 11.2
